Source listed as paper PMC11995216.

- System: PAMPA
- Details: Papp (x 10^-6 cm/s) / experiment 8; UV detection
Test readout: Papp (×10⁻⁶ cm/s)

Solved cases below.
{"Smiles repr": "CCCCC[C@H](OC(=O)[C@@H](C)N(C)C(=O)[C@H](CCCCC)OC(=O)[C@@H](C)N(C)C(=O)[C@H](CCCCC)OC(=O)[C@@H](C)N(C)C(=O)[C@H](CCCCC)OC(=O)[C@@H](C)N(C)C(=O)[C@H](CCCCC)OC(=O)[C@@H](C)N(C)C(=O)[C@H](CCCCC)OC(=O)[C@@H](C)N(C)C(=O)OC(C)(C)C)C(=O)OCc1ccccc1", "Test readout": "Papp", "Units symbol": "×10⁻⁶ cm/s", "Readout value": 0.43}
{"Smiles repr": "CCCCC[C@H](OC(=O)[C@@H](C)N(C)C(=O)[C@H](CCCCC)OC(=O)[C@@H](C)N(C)C(=O)[C@H](CCCCC)OC(=O)[C@@H](C)N(C)C(=O)OC(C)(C)C)C(=O)OCc1ccccc1", "Test readout": "Papp", "Units symbol": "×10⁻⁶ cm/s", "Readout value": 3.46}
{"Smiles repr": "CCCCC[C@H](OC(=O)[C@@H](C)N(C)C(=O)OC(C)(C)C)C(=O)OCc1ccccc1", "Test readout": "Papp", "Units symbol": "×10⁻⁶ cm/s", "Readout value": 4.51}

P. CCCCC[C@H](OC(=O)[C@@H](C)N(C)C(=O)[C@H](CCCCC)OC(=O)[C@@H](C)N(C)C(=O)OC(C)(C)C)C(=O)OCc1ccccc1
Q. CCCCC[C@H](OC(=O)[C@@H](C)N(C)C(=O)[C@H](CCCCC)OC(=O)[C@@H](C)N(C)C(=O)[C@H](CCCCC)OC(=O)[C@@H](C)N(C)C(=O)[C@H](CCCCC)OC(=O)[C@@H](C)N(C)C(=O)OC(C)(C)C)C(=O)OCc1ccccc1
# input Kindly identify the item with the lower Papp figure among these two: P and Q # reply format: chosen label
# output Q
